# Assay Comment: antimalarial activity against Dd2 strain (AID 2302);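 also: 0% = DMSO untreated growth and 100% = chloroquine plus artemisinin killed control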
# Condition Set: P. falciparum Dd2 in RBCs, LDH growth readout, 72 h; at 2 µM; hits give high values
Readout Label: growth inhibition (%)

# Molecule, Readout Label, Value Observed
measured = [
    ("O=C(c1ccc(-c2ccc(-c3nc4ccc(C(F)(F)F)cc4[nH]3)s2)cc1)N1CCN(CCc2ccccc2)CC1", "growth inhibition", 60),
    ("Cc1ccc(CNC(=O)c2cnc(N3CCN(c4ccncc4)CC3)c(Cl)c2)cc1", "growth inhibition", 6),
    ("CC(C)(C)OC(=O)N[C@@H](Cc1ccccc1)C(=O)Nc1cccc(-c2cccc(NC(=O)[C@H](Cc3ccccc3)NC(=O)OC(C)(C)C)c2)c1", "growth inhibition", 97),
    ("O=C(/C=C/c1ccc(Cl)c(Cl)c1)NCCCCCN1CCC(NC(=O)Nc2ccc(Cl)c(Cl)c2)CC1", "growth inhibition", 1),
    ("O=C(/C=C/c1ccc(Cl)cc1)NCCCCCN1CCCC(C(=O)Nc2ccc(Cl)cc2)C1 (stereo unspecified)", "growth inhibition", 6),
    ("Cc1cc(F)ccc1Nc1nc(N(C)c2ccccc2)c2cccc(O)c2n1", "growth inhibition", 81),
    ("CC(C)OC(=O)c1ccccc1S(N)(=O)=O", "growth inhibition", -2),
    ("Cc1ccc2c(=O)n(C)c(=O)n(C)c2n1", "growth inhibition", -3),
    ("COc1ccc2nccc([C@@H](O)CN3CCC(NC(=O)c4cc5cccnc5[nH]4)CC3)c2c1", "growth inhibition", 6),
    ("CC[C@H]1CN2CCc3cc(OC)c(OC)cc3[C@@H]2C[C@@H]1CC1=NCCc2c1[nH]c1ccc(OCc3ccccc3)cc21", "growth inhibition", 89),
    ("CCOCn1c(-c2ccccc2)cc2c3c(N)nc(N)nc3ccc21", "growth inhibition", 66),
]
